Could you please report measured Inhibitory Activitis (IC50) Lipid Peroxidation for the items listed next?
System: Fe (II)-induced microsomal lipid peroxidation (rat liver microsomes)
test.details: Inhibition of Fe (II)-induced microsomal lipid peroxidation
Format: biochemical
experimental.parameters: TBARS, purified compounds screened at 26.750 μg/mL, extract (HT) at 100 μg/mL
Excerpt: 3.4.4. Inhibition of Fe (II)-Induced Microsomal Lipid Peroxidation Assay A modified assay described by Snijman et al. with little modifications.
Numeric only. Scale: µg/mL

(Q) Report Inhibitory Activitis (IC50) Lipid Peroxidation for O=c1c(O)c(-c2ccc(O)c(O)c2)oc2cc(O)cc(O)c12 please.
(A) 2.931

(Q) Please look up its Inhibitory Activitis (IC50) Lipid Peroxidation: CC(C)=CCc1c(O)cc(O)c(C(=O)/C=C/c2ccccc2)c1O [Compound 3, 2',4',6'-trihydroxy-3'-prenylchalcone]
(A) 21.276

(Q) Can you look up the measured Inhibitory Activitis (IC50) Lipid Peroxidation of O=C(O[C@@H]1Cc2c(O)cc(O)cc2O[C@@H]1c1cc(O)c(O)c(O)c1)c1cc(O)c(O)c(O)c1 [EGCG, epigallocatechin gallate, reference compound] for me?
(A) 0.929

(Q) Quick one: Inhibitory Activitis (IC50) Lipid Peroxidation for COc1ccc(-c2oc3cc(O)cc(O)c3c(=O)c2O)cc1 ?
(A) 10.520

(Q) Report Inhibitory Activitis (IC50) Lipid Peroxidation for COc1ccc(-c2oc3cc(O)cc(O)c3c(=O)c2O)cc1O please.
(A) 6.449

(Q) What value of Inhibitory Activitis (IC50) Lipid Peroxidation has been reported for the following molecule? COc1cc2oc(-c3ccccc3)cc(=O)c2c(O)c1OC
(A) 10.720

###

system.tested: elastase (from porcine pancreas) (Sus scrofa)
Construct: purchased Sigma-Aldrich, Inc. (St. Louis, MO, USA); host or cells: porcine pancreas
Sequence (P00772 27-266): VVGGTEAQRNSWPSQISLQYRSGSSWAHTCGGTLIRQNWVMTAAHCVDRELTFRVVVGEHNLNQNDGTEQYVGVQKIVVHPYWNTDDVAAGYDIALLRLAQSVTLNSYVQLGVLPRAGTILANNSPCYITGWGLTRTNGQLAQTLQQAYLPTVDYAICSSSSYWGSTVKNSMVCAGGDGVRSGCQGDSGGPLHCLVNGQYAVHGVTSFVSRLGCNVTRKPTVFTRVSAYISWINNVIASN
test.details: Elastase inhibition assay
Format: biochemical
experimental.parameters: substrate SANA; 100 μg/mL optimum concentration; read-out: Inhibitory Activitis (IC50) Elastase (converted)
Give measured IC50 for each item. Keep answers brief.

(Q) Requested field: IC50. Item: COc1ccc(-c2oc3cc(O)cc(O)c3c(=O)c2O)cc1
(A) > 333 µM

(Q) Name the reported IC50 value associated with the molecule COc1cc2oc(-c3ccccc3)cc(=O)c2c(O)c1OC
(A) > 335 µM

(Q) Return reported IC50; argument: CC(C)=CCc1c(O)cc(O)c2c1O[C@H](c1ccccc1)CC2=O
(A) > 308 µM

(Q) For the molecule shown here, COc1ccc(-c2oc3cc(O)cc(O)c3c(=O)c2O)cc1O , give the reported IC50.
(A) 274 µM

(Q) // returns reported IC50 for input CC(C)=CCc1c(O)cc(O)c(C(=O)/C=C/c2ccccc2)c1O [Compound 3, 2',4',6'-trihydroxy-3'-prenylchalcone]
(A) > 308 µM

(Q) Find the recorded IC50 belonging to CC(C)=CCOc1cc(O)c(C(=O)/C=C/c2ccccc2)c2c1C=CC(C)(C)O2 and report it.
(A) > 256 µM

(Q) Using the record for CC(C)=CCc1c(O)cc2c(c1O)C(=O)C[C@@H](c1ccccc1)O2 , report its IC50.
(A) > 308 µM

###

Assignment: determine reported TEAC for the given molecules.
test.details: Trolox equivalent absorbance capacity (TEAC) assay
experimental.parameters: Trolox equivalents; absorbance 734 nm, 25 °C
Only the number, expressed in μM TE/g, is required.

(Q) Fill in: TEAC of O=c1c(O)c(-c2ccc(O)c(O)c2)oc2cc(O)cc(O)c12 [Compound 7, quercetin] is ___
(A) 1361.70

(Q) Could you share which TEAC value was measured for COc1ccc(-c2oc3cc(O)cc(O)c3c(=O)c2O)cc1 [Compound 9, 4'-methoxykaempferol] ?
(A) 261.30

(Q) # TEAC lookup, item COc1cc2oc(-c3ccccc3)cc(=O)c2c(O)c1OC [Compound 10, mosloflavone]
(A) 699.66

(Q) Name the reported TEAC value associated with the molecule O=C(O[C@@H]1Cc2c(O)cc(O)cc2O[C@@H]1c1cc(O)c(O)c(O)c1)c1cc(O)c(O)c(O)c1 [EGCG, epigallocatechin gallate, reference compound]
(A) 11545.4
